- Test system: citrated plasma
- experiment: Prothrombin time (PT), method using spectramax
- Assay type: biochemical, human and rat
- assay.setup: concentration required to double the plasma clotting times, absorbance 340 nm, plasma species not given
So basically, if 2xPT (uM) Spectramax comes in under 0.5 µM it's criterion met, and if it's 0.5 µM or more it's criterion not met.

Task: Take the compound `CCN1OCCN=C1c1ccc(N2C[C@H](CNC(=O)c3ccc(Cl)s3)OC2=O)cc1` and say whether its 2xPT (uM) Spectramax is less than 0.5 µM.
Output: criterion met

Task: Take the compound `CN1OCCN=C1c1ccc(N2C[C@H](CNC(=O)c3ccc(Cl)s3)OC2=O)cc1` and say whether its 2xPT (uM) Spectramax is less than 0.5 µM.
Output: criterion met

Task: Take the compound `O=C(NC[C@H]1CN(c2ccc(N3CCON=C3C3CC3)cc2)C(=O)O1)c1ccc(Cl)s1` and say whether its 2xPT (uM) Spectramax is less than 0.5 µM.
Output: criterion not met

Task: Take the compound `CC1=NN(C)CCN1c1ccc(N2C[C@H](CNC(=O)c3ccc(Cl)s3)OC2=O)cc1` and say whether its 2xPT (uM) Spectramax is less than 0.5 µM.
Output: criterion not met

Task: Take the compound `CN1CCON=C1c1ccc(N2C[C@H](CNC(=O)c3ccc(Cl)s3)OC2=O)cc1` and say whether its 2xPT (uM) Spectramax is less than 0.5 µM.
Output: criterion met

Task: Take the compound `O=C(NC[C@H]1CN(c2ccc(N3C=NOCC3)cc2)C(=O)O1)c1ccc(Cl)s1` and say whether its 2xPT (uM) Spectramax is less than 0.5 µM.
Output: criterion not met
